The measurements presented in this section are drawn from patent US20240384350A1.

- measuredOn: EGFR A763insFQEA (Homo sapiens, UniProt P00533, INS763FQEA)
- Construct: expressed in transfected cells; host or cells: Ba/F3 cells, retroviral pBabe-Puro vector
- protocol: Ba/F3 drug screening, Cell Titer Glo, IC50 Mut/WT
- Type: cell-based
- reportedConditions: Classical-Like, 72 hours
recordedMetric: ratio of IC50 for cells with mutant EGFR to IC50 for cells with wildtype EGFR (Mut/WT)

Illustrative cases are given below, each with its answer.
INSERT INTO assay_data (mol, endpointvalue) VALUES
  ('Cc1cc(C(=O)Nc2nc3cccc(Cl)c3n2[C@@H]2CCCCN(C(=O)/C=C/CN(C)C)C2)ccn1', 0.05676),
  ('C=CC(=O)Nc1cc(Nc2nccc(-c3c[nH]c4ccccc34)n2)c(OC)cc1N(C)CCN(C)C', 0.3966),
  ('C=CC(=O)Nc1cccc(Oc2nc(Nc3ccc(N4CCN(C)CC4)cc3)nc3ccsc23)c1', 0.02753);

a = C=CC(=O)Nc1cc(Nc2ncc(C(=O)OC(C)C)c(-c3cn(C)c4ccccc34)n2)c(OC)cc1N(C)CCN(C)C
b = C=CC(=O)Nc1cc(Nc2nccc(-n3cc(CN(C)C)c(-c4ccccc4)n3)n2)c(OC)cc1N1CCOCC1
c = COc1cc2ncnc(Nc3cccc(Cl)c3F)c2cc1OC(=O)N1CCN(C)C[C@H]1C
d = CN(C)C/C=C/C(=O)Nc1cc2c(Nc3ccc(Cl)c(Br)c3)ncnc2cn1
Arrange by ratio of IC50 for cells with mutant EGFR to IC50 for cells with wildtype EGFR (Mut/WT), high to low. Write the labels in rank order as requested.
a, d, b, c
(a: 0.473, d: 0.05463, b: 0.03797, c: 0.02225)

###

- measuredOn: EGFR L858R/T790M (Homo sapiens, UniProt P00533, L858R/T790M)
- Construct: expressed in transfected cells; host or cells: Ba/F3
- protocol: Ba/F3 drug screening, Cell Titer Glo, IC50 Mut/WT
- Assay type: cell-based
- reportedConditions: T790M-like-3S, 72 hours
recordedMetric: ratio of IC50 for cells with mutant EGFR to IC50 for cells with wildtype EGFR (Mut/WT)

Illustrative cases are given below, each with its answer.
INSERT INTO results (mol, endpointvalue) VALUES
  ('Cc1cc(C(=O)Nc2nc3cccc(Cl)c3n2[C@@H]2CCCCN(C(=O)/C=C/CN(C)C)C2)ccn1', 0.01957),
  ('C=CC(=O)N[C@H]1C=C(C)c2c(-c3cnc4ccccc4c3)c3c(N)ncnc3n2C1', 0.01963);

1 = CN(C)C/C=C/C(=O)Nc1cc2c(Nc3ccc(Cl)c(Br)c3)ncnc2cn1
2 = COc1cc2ncnc(Nc3cccc(Cl)c3F)c2cc1OC(=O)N1CCN(C)C[C@H]1C
Sort 1 and 2 by ratio of IC50 for cells with mutant EGFR to IC50 for cells with wildtype EGFR (Mut/WT) descending and give the first. Pick one and reply with its label.
1
(1: 11.95, 2: 6.744)

P = C=CC(=O)Nc1cc(Nc2ncc(C(=O)OC(C)C)c(-c3cn(C)c4ccccc34)n2)c(OC)cc1N(C)CCN(C)C
Q = C=CC(=O)N1CC[C@@H](Oc2nc(Nc3ccc(N4CCC(N5CCN(C)CC5)CC4)cc3)c(C(N)=O)nc2CC)C1
Sort P and Q by ratio of IC50 for cells with mutant EGFR to IC50 for cells with wildtype EGFR (Mut/WT) descending and give the first. Pick one and reply with its label.
P
(P: 0.7565, Q: 0.01398)
